# key: entry, value: IC50
Biological target: human GST-MEK1^CA (Ser218Asp, Ser222Asp) (Homo sapiens, UniProt Q02750, S218D/S222D)
Construct: GST
Sequence (Q02750 whole entry S218D/S222D): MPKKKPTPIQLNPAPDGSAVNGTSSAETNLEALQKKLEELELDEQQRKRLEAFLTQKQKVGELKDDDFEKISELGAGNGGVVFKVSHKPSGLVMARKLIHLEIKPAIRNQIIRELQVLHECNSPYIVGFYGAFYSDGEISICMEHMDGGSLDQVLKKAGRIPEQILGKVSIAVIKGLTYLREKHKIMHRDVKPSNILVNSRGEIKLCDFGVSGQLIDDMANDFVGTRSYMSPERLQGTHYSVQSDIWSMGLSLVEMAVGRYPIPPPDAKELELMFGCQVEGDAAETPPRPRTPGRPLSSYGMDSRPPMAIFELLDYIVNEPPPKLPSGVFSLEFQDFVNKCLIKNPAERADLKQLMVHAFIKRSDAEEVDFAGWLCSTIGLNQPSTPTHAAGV
Test: MEK1 kinase assay (generation of IC50 data, 33P filter assay with ERK2 and MBP)
Conditions: ATP
MEASURED ENDPOINT: IC50

{"columns": ["COMPOUND STRING", "TEST SYSTEM", "VAL"],
 "data": [
  ["Cn1cc(NS(=O)(=O)C2CC2)c(Nc2ccc(I)cc2F)c(Cl)c1=O", "human GST-MEK1^CA (Ser218Asp, Ser222Asp) (Homo sapiens, UniProt Q02750, S218D/S222D)", "< 100 nM"],
  ["Cn1cc(NS(=O)(=O)C2(CC(=O)CO)CC2)c(Nc2ccc(I)cc2F)c(F)c1=O", "human GST-MEK1^CA (Ser218Asp, Ser222Asp) (Homo sapiens, UniProt Q02750, S218D/S222D)", "< 100 nM"],
  ["Cn1cc(NS(=O)(=O)C2CC2)c(Nc2ccc(Br)cc2F)c(F)c1=O", "human GST-MEK1^CA (Ser218Asp, Ser222Asp) (Homo sapiens, UniProt Q02750, S218D/S222D)", "500 to 1000 nM"],
  ["Cc1c(Nc2ccc(I)cc2F)c(NS(=O)(=O)C2CC2)cn(C)c1=O", "human GST-MEK1^CA (Ser218Asp, Ser222Asp) (Homo sapiens, UniProt Q02750, S218D/S222D)", "< 100 nM"],
  ["Cn1cc(NS(=O)(=O)C2CC2)c(Nc2ccc(Br)cc2F)cc1=O", "human GST-MEK1^CA (Ser218Asp, Ser222Asp) (Homo sapiens, UniProt Q02750, S218D/S222D)", "> 1000 nM"]
]}

----------
Biological target: human GST-MEK1^CA (Ser218Asp, Ser222Asp) (Homo sapiens, UniProt Q02750, S218D/S222D)
Construct: GST
Assay: MEK1 kinase assay (generation of IC50 data, 33P filter assay with ERK2 and MBP)
Conditions: ATP
pIC50: −log10 of the molar value.

{"columns": ["COMPOUND", "TEST SYSTEM", "pIC50"],
 "data": [
  ["Cn1cc(NS(=O)(=O)C2(CC(O)CO)CC2)c(Nc2ccc(I)cc2F)cc1=O (centres unmarked) [Example 2]", "human GST-MEK1^CA (Ser218Asp, Ser222Asp) (Homo sapiens, UniProt Q02750, S218D/S222D)", "6.00 to 6.30"],
  ["Cn1cc(NS(=O)(=O)C2(CC(O)CO)CC2)c(Nc2ccc(I)cc2F)c(F)c1=O (centres unmarked) [Example 11]", "human GST-MEK1^CA (Ser218Asp, Ser222Asp) (Homo sapiens, UniProt Q02750, S218D/S222D)", "> 7.00"],
  ["Cc1c(Nc2ccc(I)cc2F)c(NS(=O)(=O)C2(Cl)CC2)cn(C)c1=O [Example 10]", "human GST-MEK1^CA (Ser218Asp, Ser222Asp) (Homo sapiens, UniProt Q02750, S218D/S222D)", "6.30 to 7.00"],
  ["Cn1cc(NS(=O)(=O)C2CC2)c(Nc2ccc(Br)cc2F)c(Cl)c1=O [Example 3]", "human GST-MEK1^CA (Ser218Asp, Ser222Asp) (Homo sapiens, UniProt Q02750, S218D/S222D)", "6.00 to 6.30"],
  ["CN(C)S(=O)(=O)Nc1cn(C)c(=O)cc1Nc1ccc(I)cc1F [Example 6]", "human GST-MEK1^CA (Ser218Asp, Ser222Asp) (Homo sapiens, UniProt Q02750, S218D/S222D)", "< 6.00"],
  ["Cn1cc(NS(=O)(=O)C2CC2)c(Nc2ccc(I)cc2F)c(F)c1=O [Example 4]", "human GST-MEK1^CA (Ser218Asp, Ser222Asp) (Homo sapiens, UniProt Q02750, S218D/S222D)", "> 7.00"],
  ["Cn1cc(NS(=O)(=O)NCC(O)CO)c(Nc2ccc(I)cc2F)cc1=O (centres unmarked) [Example 13]", "human GST-MEK1^CA (Ser218Asp, Ser222Asp) (Homo sapiens, UniProt Q02750, S218D/S222D)", "< 6.00"],
  ["Cn1cc(NS(=O)(=O)C2CC2)c(Nc2ccc(I)cc2F)cc1=O [Example 1]", "human GST-MEK1^CA (Ser218Asp, Ser222Asp) (Homo sapiens, UniProt Q02750, S218D/S222D)", "6.00 to 6.30"]
]}

----------
Test system: A375 cells

{"columns": ["MOLECULE", "GI50"],
 "data": [
  ["Cn1cc(NS(=O)(=O)C2CC2)c(Nc2ccc(I)cc2F)c(Cl)c1=O", "500 to 1000 nM"],
  ["Cn1cc(NS(=O)(=O)C2(CC(O)CO)CC2)c(Nc2ccc(I)cc2F)cc1=O (centres unmarked)", "> 1000 nM"],
  ["Cn1cc(NS(=O)(=O)C2CC2)c(Nc2ccc(Br)cc2F)c(F)c1=O", "> 1000 nM"],
  ["CN(C)S(=O)(=O)Nc1cn(C)c(=O)cc1Nc1ccc(I)cc1F", "500 to 1000 nM"],
  ["Cn1cc(NS(=O)(=O)NCC(O)CO)c(Nc2ccc(I)cc2F)cc1=O (centres unmarked)", "> 1000 nM"],
  ["Cn1cc(NS(=O)(=O)C2CC2)c(Nc2ccc(I)cc2F)cc1=O", "< 100 nM"],
  ["Cn1cc(NS(=O)(=O)C2CC2)c(Nc2ccc(I)cc2F)c(F)c1=O", "< 100 nM"],
  ["Cn1cc(NS(=O)(=O)C2CC2)c(Nc2ccc(Br)cc2F)c(Cl)c1=O", "> 1000 nM"]
]}

----------
Experiment: EC50 (no method described)

{"columns": ["COMPOUND STRING", "EC50"],
 "data": [
  ["Cc1c(Nc2ccc(I)cc2F)c(NS(=O)(=O)C2CC2)cn(C)c1=O", "< 100 nM"],
  ["Cn1cc(NS(=O)(=O)C2CC2)c(Nc2ccc(I)cc2F)c(Cl)c1=O", "< 100 nM"],
  ["Cc1c(Nc2ccc(I)cc2F)c(NS(=O)(=O)C2(Cl)CC2)cn(C)c1=O", "< 100 nM"]
]}
